B1: CPEB3 Ribozyme (parent)
chain: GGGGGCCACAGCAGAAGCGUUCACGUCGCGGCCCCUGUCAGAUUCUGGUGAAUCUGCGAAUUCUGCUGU

Variants of: B1
Assay: self-cleavage, relative activity (ratio to wild type); higher = more cleavage; co-transcriptional
Labels assigned by self-cleavage range: LOW = under 0.2, MEDIUM = from 0.2 up to 0.7, HIGH = 0.7 and over

variantIdentifier	answerLabel
G14A G17C	LOW
G1U G56A	LOW
A8G U55A	MEDIUM
U46G G65A	HIGH
C35G A59C	MEDIUM
A59C C63G	MEDIUM
U49G U61G	HIGH
G50C U67A	HIGH
C34A C54G	MEDIUM
C7U C57G	LOW
G28U C57A	LOW
G2A U69C	MEDIUM
A16G C33A	HIGH
G4C U53G	LOW
G50U U64C	HIGH
C7U G41C	MEDIUM
A16U G47U	HIGH
G47C G56A	HIGH
G2C U55A	LOW
C63U U64C	HIGH
C7A U43G	MEDIUM
C22U C35G	LOW
U36G U55G	MEDIUM
U26C C33U	HIGH
G19C A60U	LOW
A59C U62A	MEDIUM
A23C C63U	HIGH
U20C U69G	MEDIUM
C27A U38G	LOW
G50C C57G	MEDIUM
C29A A60G	MEDIUM
C6G U61G	MEDIUM
G41U U49A	HIGH
G37U G50A	MEDIUM
G28U A42C	LOW
C18A U69C	MEDIUM
A13U U62G	MEDIUM
C39A A59U	MEDIUM
A8G G50A	HIGH
G2C G17U	LOW
C33G C34G	MEDIUM
C7A C22U	LOW
G50U C63G	HIGH
C9A U53G	HIGH
G19U U38C	MEDIUM
C12G G41C	MEDIUM
G41A A51G	HIGH
G50A U67G	HIGH
G25C G31A	MEDIUM
C34A G56A	MEDIUM
U44G U53G	HIGH
U26A U49A	HIGH
C7G C22G	LOW
U55A U69G	HIGH
G3U G48U	LOW
A13G A16G	HIGH
U20C U36C	LOW
U26A C63G	MEDIUM
A15G U62G	HIGH
C32U C39A	HIGH
A51G G58A	HIGH
G37U A51U	MEDIUM
U20C A52G	LOW
G47A C57G	MEDIUM
G48U C54U	HIGH
G41A A42U	MEDIUM
U36G U38A	MEDIUM
G3A U64G	MEDIUM
G3U G25A	LOW
A8U A42G	HIGH
G14A G30C	MEDIUM
C7G A23U	MEDIUM
U46A C57A	MEDIUM
C29G U67C	MEDIUM
A8G U36G	LOW
U49A U55G	HIGH
C34U G58A	HIGH
U62G G68C	HIGH
C7G G37U	LOW
G14U G17C	LOW
